Reference for the values: paper PMC9997069

Assay: Protonation equilibria by UV-vis pH titration with DFT assignment
Assay type: physicochemical
Conditions: aqueous solution, equilibrium to species with charge +3, acidic pH
parameter.measured: pKa

Which pKa value belongs to "COc1cc(C(=O)NC2CCN(C)CC2)ccc1Nc1ncc2c(n1)N(C1CCCC1)CC(F)(F)C(=O)N2C" ?
3.8
